Target entity: Neu5Ac(a2-6)Gal(b1-4)GlcNAc(b1-2)Man(a1-3)[GlcNAc(b1-4)][Neu5Ac(a2-6)Gal(b1-4)GlcNAc(b1-2)Man(a1-6)]Man(b1-4)GlcNAc(b1-4)GlcNAc
Experimental protocol: glycan array binding signal (z-score within array); higher = stronger binding
Condition notes: glycan notation: IUPAC condensed, linker removed
Shown is part of a subset that was picked to be rich in the strongest signals.
// values below are reported glycan array binding signal (z-score)
Response field accepts a number only; no unit should be typed.

Guide cases for glycan array binding signal (z-score), answers given:
YASPKCFRYPNGVLACT [Odorranalectin (Odorrana grahami), B3TFE9_RANGR] : -0.309
MpAFP NterminalRI GFP (Marinomonas primoryensis) (protein) MSDNQFPFATLGNAIGFITKLDGSVTVQSIDGQERVLKLGDPIFFGETVLTGGSGSVTIAFVDGTDVVIGGDSIVEMTDEIYNTGDNEDLVADSSSEIDALQNAILAGDDPTLIQDAPAAGNTLADQQRVDVSIERNDNSAQAGFGVDTQSSLPTYGYDTDNGNGGQATEREYSAPSLSRTLNQSPLLEHHHHHH : -0.202
MGL1 (Mus musculus), P49300 (protein) MIYENLQNSRIEEKTQEPGKAPSQSFLWRILSWTHLLLFSLGLSLLLLVVVSVIGSQNSQLRRDLGTLRATLDNTTSKIKAEFQSLDSRADSFEKGISSLKVDVEDHRQELQAGRDLSQKVTSLESTVEKREQALKTDLSDLTDHVQQLRKDLKALTCQLANLKNNGSEVACCPLHWTEHEGSCYWFSESEKSWPEADKYCRLENSHLVVVNSLEEQNFLQNRLANVVSWIGLTDQNGPWRWVDGTDFEKGFKNWAPLQPDNWFGHGLGGGEDCAHITTGGPWNDDVCQRTFRWICEMKLAKES : -0.48
MXA PilAct-eGFP (Myxococcus xanthus), Q59589 (protein) MRVSRFNPRNRGFTLIELMIVVAIIGILAAIAIPNFIKFQARSKQSEAKTNLKALYTAQKSFFSEKDRYSDFANEIGFAPERGNRYGYRVSAAAGDCEVRNAADLPVPAAGVPCISNDSFRFGANSAIDDPTPVVARFVPQGAAGWNTTLGVQPTIADCPNCNFFAGARGNADNEATFDDWVIAGFEGSGQVGPCSEAGNVASGTPYNTRNDVACDGAAQ : -1.03

## Input Quick one: glycan array binding signal (z-score) of OGAN (protein) MVQKESQATLEERESELSSNPAASAGASLEPPAAPAPGEDNPAGAGGAAVAGAAGGARRFLCGVVEGFYGRPWVMEQRKELFRRLQKWELNTYLYAPKDDYKHRMFWREMYSVEEAEQLMTLISAAREYEIEFIYAISPGLDITFSNPKEVSTLKRKLDQVSQFGCRSFALLFNDIDHNMCAADKEVFSSFAHAQVSITNEIYQYLGEPETFLFCPTEYCGTFCYPNVSQSPYLRTVGEKLLPGIEVLWTGPKVVSKEIPVESIEEVSKIIKRAPVIWDNIHANDYDQKRLFLGPYKGRSTELIPRLKGVLTNPNCEFEANYVAIHTLATWYKSNMNGVRKDVVMTDSEDSTVSIQIKLENEGSDEDIETDVLYSPQMALKLALTEWLQEFGVPHQY ?
## Output -0.034
